Assignment: determine reported pIC50 for the given molecules.
# system tested: human NaV 1.8 (Homo sapiens)
# Sequence (Q9Y5Y9 126-399 limits assumed): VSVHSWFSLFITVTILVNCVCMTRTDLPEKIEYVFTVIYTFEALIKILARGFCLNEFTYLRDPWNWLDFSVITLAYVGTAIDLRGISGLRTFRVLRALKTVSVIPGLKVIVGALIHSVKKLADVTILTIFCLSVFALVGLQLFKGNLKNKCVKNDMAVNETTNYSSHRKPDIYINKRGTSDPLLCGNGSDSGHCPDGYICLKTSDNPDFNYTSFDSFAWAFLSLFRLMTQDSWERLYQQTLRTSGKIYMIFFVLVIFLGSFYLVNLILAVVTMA
# Sequence (Q9Y5Y9 660-890 limits assumed): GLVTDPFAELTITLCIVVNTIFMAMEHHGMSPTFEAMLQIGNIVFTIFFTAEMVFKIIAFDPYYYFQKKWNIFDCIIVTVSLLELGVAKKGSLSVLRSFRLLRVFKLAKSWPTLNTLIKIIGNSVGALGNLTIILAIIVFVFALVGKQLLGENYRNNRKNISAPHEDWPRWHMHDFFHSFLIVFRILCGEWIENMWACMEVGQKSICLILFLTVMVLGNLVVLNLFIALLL
# Sequence (Q9Y5Y9 1148-1722 limits assumed): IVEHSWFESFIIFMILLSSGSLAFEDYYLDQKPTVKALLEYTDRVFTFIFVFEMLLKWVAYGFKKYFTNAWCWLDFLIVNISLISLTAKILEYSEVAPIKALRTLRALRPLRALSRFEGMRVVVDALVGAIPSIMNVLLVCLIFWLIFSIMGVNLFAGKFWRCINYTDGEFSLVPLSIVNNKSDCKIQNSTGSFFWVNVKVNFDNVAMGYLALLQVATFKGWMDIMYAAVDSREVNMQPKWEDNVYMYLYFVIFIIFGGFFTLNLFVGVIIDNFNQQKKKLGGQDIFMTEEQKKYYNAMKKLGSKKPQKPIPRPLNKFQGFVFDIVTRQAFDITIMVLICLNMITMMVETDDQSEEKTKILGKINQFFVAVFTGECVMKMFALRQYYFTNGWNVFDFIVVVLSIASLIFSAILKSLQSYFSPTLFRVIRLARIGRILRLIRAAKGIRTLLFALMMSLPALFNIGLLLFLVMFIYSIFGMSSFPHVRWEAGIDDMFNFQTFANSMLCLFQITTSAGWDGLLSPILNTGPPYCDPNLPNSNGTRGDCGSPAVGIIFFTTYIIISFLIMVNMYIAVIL
# test: E-VIPR assay detecting and measuring NaV inhibition properties
# Assay type: cell-based
# condition context: HEK cells expressing truncated human NaV 1.8; no human serum; read-out: IC50 in the E-VIPR Assay
pIC50: −log10 of the molar value.

COc1c([C@@H]2C[C@](C)(C(F)(F)F)O[C@H]2C(=O)Nc2cn(S(C)(=O)=O)nc2C)ccc(F)c1F (stereo in doubt) ... > 8.00
COc1c([C@H]2[C@H](C(=O)Nc3c(C)ncn3C)O[C@@](C)(C(F)(F)F)[C@H]2C)ccc(F)c1F ... ≤ 6.00
Cc1nocc1NC(=O)[C@@H]1O[C@@](C)(C(F)(F)F)[C@@H](C)[C@H]1c1ccc(F)c(F)c1OCCN[C@@H]1CCOC1 ... 7.00 to 8.00

I have 7 molecules here; please give me pIC50 for each one.
1. COc1c([C@H]2[C@H](C(=O)NC(C)C(N)=O)O[C@@](C)(C(F)(F)F)[C@H]2C)ccc(F)c1F (stereo partly drawn)
2. COc1c([C@H]2[C@H](C(=O)Nc3ccnc(N4C(=O)CNC[C@@H]4C)c3)O[C@@](C)(C(F)(F)F)[C@H]2C)ccc(F)c1F
3. COc1c([C@H]2[C@H](C(=O)Nc3ccc4nc(C(N)=O)nn4c3)O[C@@](C)(C(F)(F)F)[C@H]2C)ccc(F)c1F
4. COCCOc1cc(NC(=O)C2OC(C)(C(F)(F)F)C(C)C2c2ccc(F)c(F)c2OC)cnn1 (single isomer, unassigned) [Compound 34]
5. C[C@H]1[C@@H](c2ccc(F)c(F)c2OCCN2CCOCC2)[C@H](C(=O)Nc2cc(C(N)=O)nn2C)O[C@@]1(C)C(F)(F)F
6. COc1c([C@H]2[C@H](C(=O)Nc3ccc(C(N)=O)nc3)O[C@@](C)(C(F)(F)F)[C@H]2C)ccc(OC(F)F)c1F
7. COCc1cc(NC(=O)C2OC(C)(C(F)(F)F)C(C)C2c2ccc(F)c(F)c2OC2CC(O)C2)ccn1 (stereo not drawn)

[out]
["≤ 6.00", "7.00 to 8.00", "7.00 to 8.00", "7.00 to 8.00", "7.00 to 8.00", "> 8.00", "7.00 to 8.00"]

----------
# system tested: human NaV 1.8 (Homo sapiens)
# test: E-VIPR assay detecting and measuring NaV inhibition properties
# Type: cell-based
# condition context: HEK cells expressing truncated human NaV 1.8; no human serum; read-out: IC50 in the E-VIPR Assay
pIC50: −log10 of the molar value.
Assignment: determine reported pIC50 for the given compounds.

CCOc1c([C@H]2[C@H](C(=O)Nc3ccnc([S@@](C)(=O)=NC)c3)O[C@@](C)(C(F)(F)F)[C@H]2C)ccc(F)c1F (relative stereo) [Compound 12] ... > 8.00
COc1c(C2C(C(=O)Nc3ccnc(C(C)(C)O)c3)OC(C)(C(F)(F)F)C2C)ccc(F)c1F (single isomer, unassigned) [Compound 48] ... > 8.00
COc1c([C@H]2[C@H](C(=O)Nc3cc(C4CN(C)CCO4)ncc3F)O[C@@](C)(C(F)(F)F)[C@H]2C)ccc(F)c1F (single isomer, unassigned) [Compound 367] ... 7.00 to 8.00
C[C@H]1[C@@H](c2ccc(F)c(F)c2OC(F)F)[C@H](C(=O)Nc2ccnc(CC(C)(C)O)c2)O[C@@]1(C)C(F)(F)F (single isomer, unassigned) [Compound 464] ... 7.00 to 8.00
C[C@@H]1[C@H](c2ccc(F)c(F)c2OC(F)F)[C@@H](C(=O)Nc2ccn3nnnc3c2)O[C@]1(C)C(F)(F)F (single isomer, unassigned) [Compound 79] ... 6.00 to 7.00
COc1c([C@H]2[C@H](C(=O)Nc3ccnc(N4CCN(C)CC4=O)c3)O[C@@](C)(C(F)(F)F)[C@H]2C)ccc(F)c1C(F)F (single isomer, unassigned) [Compound 162] ... > 8.00
C[C@@H]1[C@H](c2ccc(F)c(F)c2OC(F)F)[C@@H](C(=O)Nc2ccnc(CO)c2)O[C@]1(C)C(F)(F)F (single isomer, unassigned) [Compound 91] ... ≤ 6.00
COc1c([C@H]2[C@H](C(=O)Nc3ccnc(N4C[C@@H]5CC[C@@H](N5)C4=O)c3)O[C@@](C)(C(F)(F)F)[C@H]2C)ccc(F)c1F (single isomer, unassigned) [Compound 494] ... 7.00 to 8.00

// next item, pIC50 requested
[in] Request - read-out pIC50 | tested on human NaV 1.8 (Homo sapiens) | compound [2H]C([2H])([2H])Oc1c([C@H]2[C@H](C(=O)Nc3ccnc(N4C(=O)CN(C)C[C@H]4C)c3)O[C@@](C)(C(F)(F)F)[C@H]2C)ccc(F)c1F [Compound 519]
[out] > 8.00
